# experiment_summary: Oral bioavailability in cynomolgus monkey at 20 mg/kg
# Format: ADME, organism-based, Macaca fascicularis
# condition_context: in vivo
# key: entry, value: bioavailability
I only need the number, in %, no unit after it.

>>> df
                                   compound  unit_of_measure  numeric_value
0  O=C(O)c1ccc2nc(CN3CCC(c4cccc(OCc5ccc(C6COC6)cc5F)n4)CC3)n(C[C@@H]3CCO3)c2c1                %           32.8

# evaluate next
Input line: Read the entry N#Cc1ccc(COc2cccc(C3CCN(Cc4nc5ccc(C(=O)O)cc5n4C[C@@H]4CCO4)CC3)n2)c(F)c1 [DANUGLIPRON] and write its reported bioavailability.
Output line: 3.41

----------
# experiment_summary: Oral bioavailability in rat at 5 mg/kg by LC-MS/MS analysis
# Assay type: ADME, organism-based
# condition_context: in vivo
# bioavailability annotations
Quick note: give the figure in %, leave out the unit.

>>> df
                                   compound  numeric_value
0  N#Cc1ccc(COc2cccc(C3CCN(Cc4nc5ccc(C(=O)O)cc5n4C[C@@H]4CCO4)CC3)n2)c(F)c1 [DANUGLIPRON]           10.2

Input line: Specify reported bioavailability for the compound shown: `O=C(O)c1ccc2nc(CN3CCC(c4cccc(OCc5ccc(C6COC6)cc5F)n4)CC3)n(C[C@@H]3CCO3)c2c1`
Output line: 12.8

----------
# experiment_summary: AUC in rat at 5 mg/kg, po by LC-MS/MS analysis
# Assay type: ADME, organism-based
# condition_context: in vivo
Known AUC of a selection of compounds
// units = ng·h/mL; emit number, no label

                                   compound  numeric_value
0  N#Cc1ccc(COc2cccc(C3CCN(Cc4nc5ccc(C(=O)O)cc5n4C[C@@H]4CCO4)CC3)n2)c(F)c1 [DANUGLIPRON]            170

Now consider a different compound.
Input line: Name the recorded AUC of the compound listed here: `O=C(O)c1ccc2nc(CN3CCC(c4cccc(OCc5ccc(C6COC6)cc5F)n4)CC3)n(C[C@@H]3CCO3)c2c1`
Output line: 180

----------
# experiment_summary: Half-life in ICR mouse at 2 mg/kg, iv by LC-MS/MS analysis
# Assay type: ADME, organism-based
# condition_context: in vivo
Recorded half-life by entry
Give just the numeric value; h need not be written.

>>> df
                              smiles_record  numeric_value
0  N#Cc1ccc(COc2cccc(C3CCN(Cc4nc5ccc(C(=O)O)cc5n4C[C@@H]4CCO4)CC3)n2)c(F)c1           2.46

Input line: In one line, give reported half-life of the entry `O=C(O)c1ccc2nc(CN3CCC(c4cccc(OCc5ccc(C6COC6)cc5F)n4)CC3)n(C[C@@H]3CCO3)c2c1` .
Output line: 7.04

----------
# experiment_summary: Apparent volume of distribution in rat at 2 mg/kg, iv by LC-MS/MS analysis
# Assay type: ADME, organism-based
# condition_context: in vivo, read-out: Vz
observed_property: Vd (L/kg)
Note: unit L/kg is implicit; provide only the numeric part.

>>> print(df.to_string())
                                   molecule  numeric_value
0  O=C(O)c1ccc2nc(CN3CCC(c4cccc(OCc5ccc(C6COC6)cc5F)n4)CC3)n(C[C@@H]3CCO3)c2c1           1.37

Next:
Input line: Consider the molecule N#Cc1ccc(COc2cccc(C3CCN(Cc4nc5ccc(C(=O)O)cc5n4C[C@@H]4CCO4)CC3)n2)c(F)c1 [DANUGLIPRON] . State its measured Vd.
Output line: 1.98

----------
# tested_target: Glucagon-like peptide 1 receptor (Homo sapiens)
# Sequence (P43220 whole entry): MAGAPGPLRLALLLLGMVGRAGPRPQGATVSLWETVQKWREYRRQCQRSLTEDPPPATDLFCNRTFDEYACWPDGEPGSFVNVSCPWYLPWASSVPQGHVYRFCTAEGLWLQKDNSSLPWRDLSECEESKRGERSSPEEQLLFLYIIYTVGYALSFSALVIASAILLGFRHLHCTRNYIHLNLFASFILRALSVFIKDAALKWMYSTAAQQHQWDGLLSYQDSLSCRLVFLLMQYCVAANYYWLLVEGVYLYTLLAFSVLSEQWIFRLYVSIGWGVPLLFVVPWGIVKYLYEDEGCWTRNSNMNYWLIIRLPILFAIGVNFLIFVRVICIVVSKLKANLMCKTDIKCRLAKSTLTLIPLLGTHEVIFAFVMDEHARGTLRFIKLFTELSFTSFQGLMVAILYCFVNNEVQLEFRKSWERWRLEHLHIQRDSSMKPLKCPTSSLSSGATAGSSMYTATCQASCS
# experiment_summary: Agonist activity at human GLP-1R expressed in HEK293 cells assessed as accumulation of cAMP preincubated for 30 mins followed by d2-labeled cAMP addition and anti-cAMP cryptate addition measured after 60 mins by HTRF assay
Entries and their measured EC50 follow.
Entry rule: numbers only, all in nM.

Reference set (5 entries):
>>> df
                                   molecule  numeric_value
0  O=C(O)c1ccc2nc(CN3CCC(c4cccc(OCc5ccc(C6COC6)cc5F)n4)CC3)n(CC3(F)CCC3)c2c1             39
1  O=C(O)c1ccc2nc(CN3CCC(c4cccc(OCC5CCN(C6COC6)CC5)n4)CC3)n(C[C@@H]3CCO3)c2c1           33.2
2  CC(=O)c1ccc(COc2cccc(C3CCN(Cc4nc5ccc(C(=O)O)cc5n4C[C@@H]4CCO4)CC3)n2)c(F)c1           0.54
3  O=C(O)c1ccc2nc(CN3CCC(c4cccc(OCc5ccc(C6(F)COC6)cc5)n4)CC3)n(C[C@@H]3CCO3)c2c1           0.08
4  CCC(=O)c1ccc(COc2cccc(C3CCN(Cc4nc5ccc(C(=O)O)cc5n4C[C@@H]4CCO4)CC3)n2)c(F)c1           0.95

Input line: Return EC50 for the following molecule: `O=C(O)c1ccc2nc(CN3CCC(c4cccc(OCc5ccc(C6COC6)cc5OCC(F)(F)F)n4)CC3)n(C[C@@H]3CCO3)c2c1`
Output line: 2.8

Input line: Specify EC50 for N#CCC1(n2c(CC3CCC(c4cccc(OCc5ccc(C6COC6)cc5F)n4)CC3)nc3ccc(C(=O)O)cc32)CC1 (centres undefined) and stop.
Output line: 0.08

Input line: Output EC50 of `O=C(O)c1ccc2nc(CN3CCC(c4cccc(OCc5ccc(C6(O)COC6)cc5)n4)CC3)n(C[C@@H]3CCO3)c2c1`
Output line: 3.08

----------
# tested_target: Cytochrome P450 1A2 (Homo sapiens, UniProt P05177)
# Sequence (P05177 whole entry): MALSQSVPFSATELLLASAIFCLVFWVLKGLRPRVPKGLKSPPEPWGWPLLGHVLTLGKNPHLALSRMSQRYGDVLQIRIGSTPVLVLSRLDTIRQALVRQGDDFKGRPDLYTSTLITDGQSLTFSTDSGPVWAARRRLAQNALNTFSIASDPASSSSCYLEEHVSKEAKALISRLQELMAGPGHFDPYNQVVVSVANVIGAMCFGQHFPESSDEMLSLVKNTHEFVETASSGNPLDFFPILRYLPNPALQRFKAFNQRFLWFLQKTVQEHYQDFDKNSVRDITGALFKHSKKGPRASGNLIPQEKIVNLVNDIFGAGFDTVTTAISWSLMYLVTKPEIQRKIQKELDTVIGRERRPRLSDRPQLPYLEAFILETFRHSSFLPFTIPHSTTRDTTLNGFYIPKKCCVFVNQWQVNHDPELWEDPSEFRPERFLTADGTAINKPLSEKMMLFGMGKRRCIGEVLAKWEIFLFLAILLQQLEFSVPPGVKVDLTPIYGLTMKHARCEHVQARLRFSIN
Overview of recorded IC50 for various compounds

>>> print(df.to_string())
                                   compound   result
0  O=C(O)c1ccc2nc(CN3CCC(c4cccc(OCc5ccc(C6COC6)cc5F)n4)CC3)n(C[C@@H]3CCO3)c2c1  > 10 µM

Input line: Determine from records and report IC50 for N#Cc1ccc(COc2cccc(C3CCN(Cc4nc5ccc(C(=O)O)cc5n4C[C@@H]4CCO4)CC3)n2)c(F)c1 [DANUGLIPRON]
Output line: > 10 µM

----------
# tested_target: hERG (KCNH2) (Homo sapiens, UniProt Q12809)
# Sequence (Q12809 whole entry): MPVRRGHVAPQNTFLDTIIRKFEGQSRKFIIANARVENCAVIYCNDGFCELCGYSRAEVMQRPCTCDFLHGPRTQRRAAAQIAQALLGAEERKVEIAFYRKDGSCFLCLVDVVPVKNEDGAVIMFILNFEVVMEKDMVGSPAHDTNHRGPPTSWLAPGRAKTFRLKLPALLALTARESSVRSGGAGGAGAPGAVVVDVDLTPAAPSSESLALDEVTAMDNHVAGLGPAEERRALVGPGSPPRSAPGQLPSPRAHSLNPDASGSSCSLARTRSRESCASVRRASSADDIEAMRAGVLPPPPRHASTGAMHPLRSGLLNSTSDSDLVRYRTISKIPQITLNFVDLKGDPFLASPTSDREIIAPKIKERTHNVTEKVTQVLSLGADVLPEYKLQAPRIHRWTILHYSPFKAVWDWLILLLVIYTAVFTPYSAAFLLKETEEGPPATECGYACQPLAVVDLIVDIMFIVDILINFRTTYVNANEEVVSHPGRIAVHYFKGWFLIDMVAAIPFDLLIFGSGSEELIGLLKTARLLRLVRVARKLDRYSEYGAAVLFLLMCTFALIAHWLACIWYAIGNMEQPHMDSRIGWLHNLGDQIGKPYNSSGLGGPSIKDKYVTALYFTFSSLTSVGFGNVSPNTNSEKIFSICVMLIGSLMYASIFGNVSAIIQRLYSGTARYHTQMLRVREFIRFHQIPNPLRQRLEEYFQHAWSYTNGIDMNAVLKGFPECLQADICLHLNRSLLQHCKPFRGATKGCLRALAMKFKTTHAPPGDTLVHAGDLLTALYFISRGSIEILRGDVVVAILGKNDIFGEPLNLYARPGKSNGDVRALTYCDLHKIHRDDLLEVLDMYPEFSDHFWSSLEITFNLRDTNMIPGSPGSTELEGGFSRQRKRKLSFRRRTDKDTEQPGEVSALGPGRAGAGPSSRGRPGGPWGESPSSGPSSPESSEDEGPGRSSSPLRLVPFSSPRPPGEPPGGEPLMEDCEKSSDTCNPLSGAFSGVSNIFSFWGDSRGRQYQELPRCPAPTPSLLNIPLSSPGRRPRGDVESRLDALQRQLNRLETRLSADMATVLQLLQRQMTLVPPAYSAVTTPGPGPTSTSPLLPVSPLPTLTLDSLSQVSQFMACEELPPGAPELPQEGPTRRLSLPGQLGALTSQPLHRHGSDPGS
# experiment_summary: Inhibition of human ERG at 1 uM by whole cell patch clamp method relative to control
# Assay type: toxicity
observed_property: inhibition at 1 µM

Input line: Give the measured inhibition at 1 µM for `O=C(O)c1ccc2nc(CN3CCC(c4cccc(OCc5ccc(C6COC6)cc5F)n4)CC3)n(C[C@@H]3CCO3)c2c1`
Output line: 3.75%

----------
Entries and their CL/F values follow.
# experiment_summary: Oral clearance in ICR mouse at 5 mg/kg, po by LC-MS/MS analysis
# Type: ADME, organism-based
# condition_context: in vivo
Answer format: number, then unit.

Input line: Specify measured CL/F for `O=C(O)c1ccc2nc(CN3CCC(c4cccc(OCc5ccc(C6COC6)cc5F)n4)CC3)n(C[C@@H]3CCO3)c2c1` .
Output line: 2.51 L/h/kg

Input line: In one line, give reported CL/F of the entry `N#Cc1ccc(COc2cccc(C3CCN(Cc4nc5ccc(C(=O)O)cc5n4C[C@@H]4CCO4)CC3)n2)c(F)c1` .
Output line: 2.19 L/h/kg

----------
# experiment_summary: AUC in ICR mouse at 5 mg/kg, po by LC-MS/MS analysis
# Format: ADME, organism-based
# condition_context: in vivo
observed_property: AUC
Please report the result as a number followed by the unit.

                              smiles_record        result
0  N#Cc1ccc(COc2cccc(C3CCN(Cc4nc5ccc(C(=O)O)cc5n4C[C@@H]4CCO4)CC3)n2)c(F)c1  2280 ng·h/mL

Here's the next entry for you.
Input line: State its AUC: `O=C(O)c1ccc2nc(CN3CCC(c4cccc(OCc5ccc(C6COC6)cc5F)n4)CC3)n(C[C@@H]3CCO3)c2c1`
Output line: 3000 ng·h/mL
